B1: Twister Ribozyme (parent)
chain: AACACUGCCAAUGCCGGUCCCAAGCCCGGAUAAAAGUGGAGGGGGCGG

variants of: B1; assay: self-cleavage, relative activity (ratio to wild type); higher = more cleavage; co-transcriptional
Could you please report measured self-cleavage for the items listed next?
Give bare numbers.

Reference set (10 entries):
AACACUGCCAAUGCCUGUCCCAAGCCCGGAGAAAAGUGGAGGGGGCGG [G16U U31G] = 1.04
AACACUGCCAAUGCCGGUCACAAGCCCGGAUAAAAGUGGAGGGGGCGA [C20A G48A] = 0.104
AACACUGCCAAUGCCGGUCCCAAUCCCGGAUAAAAGUGGAGGGGCCGG [G24U G45C] = 0.0947
AACACCGCCAAUGCCGGUCCCAAGUCCGGAUAAAAGUGGAGGGGGCGG [U6C C25U] = 0.184
AACACUGCCAAGGCCGGUCCCAAGCCCGGAUAAAAGUGGAGCGGGCGG [U12G G42C] = 0.369
AACACUGCCAAUGACGGUCCCAAGCCCGGAUAAAAGUGGAGGGGGCGU [C14A G48U] = 0.887
AACACUGCCAAUGCGGGUCCCAAGCCCGGAUAAAAGUGGAUGGGGCGG [C15G G41U] = 0.0559
AACACUGCCCAUGCCGGUCCCAAGCUCGGAUAAAAGUGGAGGGGGCGG [A10C C26U] = 0.508
AACACUGCCAAUGCCGGUCCCAAGCACGGAUAAAUGUGGAGGGGGCGG [C26A A35U] = 0.732
AAUACUGCCAAUGCCGGUCCCUAGCCCGGAUAAAAGUGGAGGGGGCGG [C3U A22U] = 0.255

Hello, I would appreciate it if you could give self-cleavage for each entry below.
1. AACACUGCCAAUGCCGGUCCCAAGCCCGGAUAAACGUGGAGGGGGGGG [A35C C46G]
2. AACACUGCCAAUGACGGUCCCAAGCCCGGAUAAAAGUGCAGGGGGCGG [C14A G39C]
3. AACACUGCCAAUGCCGGUCCCAAGCCCAGAUAAAAUUGGAGGGGGCGG [G28A G36U]

stdout:
1: 0.828; 2: 0.154; 3: 0.15

For each listed entry, give its self-cleavage.
1. ACCACUGCCAAUGCCGGUCCCAAGCCCGGAUAAAAGUGGAGGGGGCUG [A2C G47U]
2. AACACUGCCAAUGCCGGUUCCAAGCCCGGAUAAAAGUGGAGGGGGAGG [C19U C46A]
3. AACACUGCCAAUGCCGGUCCCAAGCCAGGAUAAAAGUGGAUGGGGCGG [C27A G41U]
4. AACACUGCCAAUGCCGGUCCCGAGCCCGGAUAAAAGUGGGGGGGGCGG [A22G A40G]
5. AACACUGCCAAUGCCGGUCCCAAGCCCGGAUAAAAGUGGAGGGUUCGG [G44U G45U]
6. AACACUGCCAAUGCCUGUCCAAAGCCCGGAUAAAAGUGGAGGGGGCGG [G16U C21A]

stdout:
1: 0.0503; 2: 0.853; 3: 0.0984; 4: 0.588; 5: 0.922; 6: 0.137

Hi team, please reply with self-cleavage for each item in this list.
1. AACACUGCCAGUGCCGGUCCCAAGCCCGGAUAAAAAUGGAGGGGGCGG [A11G G36A]
2. AACACUGUCAAUGCCGGUCCCAAGCCCGGAUAAAAAUGGAGGGGGCGG [C8U G36A]
3. AACACUACCAAUGCCGGUCCCAAGCCCGGAUAAAAGUGGAGUGGGCGG [G7A G42U]

stdout:
1: 0.458; 2: 0.18; 3: 0.136
